assay_system: P2X purinoceptor 7 (Homo sapiens)
test_method_notes: Antagonist activity at human P2X7 receptor expressed in Xenopus laevis oocytes assessed as reduction in ATP-induced channel currents at 100 uM by TEVC electrophysiology assay relative to control
Format: cell-based
details: Oocyte
recorded_endpoint: inhibition

structure_notation=Cn1cnc2c1c(=O)n(CC(=O)c1ccc(Cl)cc1Cl)c(=O)n2C measured=2%
structure_notation=O=C(Cn1cnc2c(Cl)ncnc21)c1ccc(F)cc1 measured=7%
structure_notation=CNc1nc(Cl)nc2c1ncn2S(=O)(=O)c1ccccc1Cl measured=2%
structure_notation=O=S(=O)(c1ccccc1Cl)n1cnc2c(Cl)nc(Cl)nc21 measured=2%
structure_notation=COc1ncnc2c1ncn2CC(=O)c1ccc(Cl)cc1Cl measured=14%

All figures here come from ChEMBL document CHEMBL4706687.
